Please go through the items and note down their Hemolysis at 100 μM.
Tested on: human red blood cells (hRBC)
Type: cell-based
Settings: red cells of human, 1 h
Numbered stars: 1 amine (or outer) side, 2 acyl side, 3 side chain; on linkers, the order of the positions; unused ones are H or OH. Bridge positions count the residues as written; N and C are the ends. Square brackets hold non-standard residues; d marks the D form. Peptide text beside a SMILES is read from it. Abu(3S-NH2) = C[C@H](N)[C@H](N)C(=O)O; Hpla = O=C(O)[C@@H](O)Cc1ccc(O)cc1; X1 = NCC[C@H](O[*:1])C(=O)[*:2]; Lac = C[C@H](O)C(=O)O

May I ask what Hemolysis at 100 μM has been recorded for C[C@@H]1NC(=O)[C@H](Cc2c[nH]cn2)NC(=O)[C@H](Cc2ccc(O)cc2)NC(=O)[C@@H]2CCCN2C(=O)[C@H]2CCCN2C(=O)[C@H](CCCCN)NC(=O)[C@H](Cc2ccc(O)cc2)OC(=O)[C@H](Cc2ccc(O)cc2)NC(=O)[C@@H]2CSSC[C@H](NC1=O)C(=O)N[C@@H](CO)C(=O)N[C@@H](C)C(=O)N1CCC[C@@H]1C(=O)N[C@@H]([C@H](C)N)C(=O)N[C@@H](CCCNC(=N)N)C(=O)N[C@@H](Cc1ccc(O)cc1)C(=O)N2 [Example 4] (cyclo(YHACSA[dP][Abu(3S-NH2)]RYCY[Hpla]K[dP]P); disulfide 4-11) ?
1.0%

May I ask what Hemolysis at 100 μM has been recorded for C[C@@H]1NC(=O)[C@H](Cc2c[nH]cn2)NC(=O)[C@H](Cc2ccc(O)cc2)NC(=O)[C@@H]2CCCN2C(=O)[C@H]2CCCN2C(=O)[C@H](CCCCN)NC(=O)[C@H](CCC(N)=O)NC(=O)[C@H](Cc2ccc(O)cc2)OC(=O)[C@@H]2CSSC[C@H](NC1=O)C(=O)N[C@@H](CO)C(=O)N[C@@H](C)C(=O)N1CCC[C@@H]1C(=O)N[C@@H]([C@H](C)N)C(=O)N[C@@H](CCCNC(=N)N)C(=O)N[C@@H](Cc1ccc(O)cc1)C(=O)N2 [Example 3] (cyclo(YHACSA[dP][Abu(3S-NH2)]RYC[Hpla]QK[dP]P); disulfide 4-11) ?
0.4%

May I ask what Hemolysis at 100 μM has been recorded for C[C@@H]1NC(=O)[C@H](CCN)OC(=O)[C@H](Cc2ccc(O)cc2)NC(=O)[C@@H]2CCCN2C(=O)[C@H]2CCCN2C(=O)[C@H](CCCCN)NC(=O)[C@H](CCC(N)=O)NC(=O)[C@H](Cc2ccc(O)cc2)NC(=O)[C@@H]2CSSC[C@H](NC1=O)C(=O)N[C@@H](CO)C(=O)N[C@@H](C)C(=O)N1CCC[C@@H]1C(=O)N[C@@H]([C@H](C)N)C(=O)N[C@@H](CCCNC(=N)N)C(=O)N[C@@H](Cc1ccc(O)cc1)C(=O)N2 [Example 6] (cyclo(Y[X1]ACSA[dP][Abu(3S-NH2)]RYCYQK[dP]P); disulfide 4-11) ?
1.0%

May I ask what Hemolysis at 100 μM has been recorded for C[C@@H]1NC(=O)[C@H](Cc2c[nH]cn2)NC(=O)[C@H](Cc2ccc(O)cc2)NC(=O)[C@@H]2CCCN2C(=O)[C@H]2CCCN2C(=O)[C@H](CCN)OC(=O)[C@@H](CCC(N)=O)NC(=O)[C@H](Cc2ccc(O)cc2)NC(=O)[C@@H]2CSSC[C@H](NC1=O)C(=O)N[C@@H](CCCNC(=N)N)C(=O)N[C@@H](C)C(=O)N1CCC[C@@H]1C(=O)N[C@@H]([C@H](C)N)C(=O)N[C@@H](CCCNC(=N)N)C(=O)N[C@@H](Cc1ccc(O)cc1)C(=O)N2 [Example 10] (cyclo(YHACRA[dP][Abu(3S-NH2)]RYCY[dQ][X1][dP]P); disulfide 4-11) ?
0.3%

May I ask what Hemolysis at 100 μM has been recorded for C[C@@H]1NC(=O)[C@H](CCCNC(=N)N)NC(=O)[C@@H]2CSSC[C@H](NC(=O)[C@H](Cc3ccc(O)cc3)NC(=O)[C@H](CCCNC(=N)N)NC(=O)[C@H]([C@H](C)N)NC(=O)[C@H]3CCCN3C1=O)C(=O)N[C@@H](Cc1ccc(O)cc1)C(=O)N[C@@H](CCC(N)=O)C(=O)N[C@@H](CCCCN)C(=O)N1CCC[C@@H]1C(=O)N1CCC[C@H]1C(=O)N[C@@H](Cc1ccc(O)cc1)C(=O)N[C@@H](Cc1c[nH]cn1)C(=O)O[C@@H](C)C(=O)N2 [Example 9] (cyclo(YH[Lac]CRA[dP][Abu(3S-NH2)]RYCYQK[dP]P); disulfide 4-11) ?
0.4%

May I ask what Hemolysis at 100 μM has been recorded for C[C@@H]1NC(=O)[C@H](Cc2c[nH]cn2)NC(=O)[C@H](Cc2ccc(O)cc2)NC(=O)[C@@H]2CCCN2C(=O)[C@H]2CCCN2C(=O)[C@H](CCN)OC(=O)[C@H](CCC(N)=O)NC(=O)[C@H](Cc2ccc(O)cc2)NC(=O)[C@@H]2CSSC[C@H](NC1=O)C(=O)N[C@@H](CCCNC(=N)N)C(=O)N[C@@H](C)C(=O)N1CCC[C@@H]1C(=O)N[C@@H]([C@H](C)N)C(=O)N[C@@H](CCCNC(=N)N)C(=O)N[C@@H](Cc1ccc(O)cc1)C(=O)N2 [Example 8] (cyclo(YHACRA[dP][Abu(3S-NH2)]RYCYQ[X1][dP]P); disulfide 4-11) ?
0.4%

May I ask what Hemolysis at 100 μM has been recorded for C[C@@H]1NC(=O)[C@H](Cc2c[nH]cn2)NC(=O)[C@H](Cc2ccc(O)cc2)NC(=O)[C@@H]2CCCN2C(=O)[C@H]2CCCN2C(=O)[C@H](CCCCN)NC(=O)[C@H](CCC(N)=O)NC(=O)[C@H](Cc2ccc(O)cc2)NC(=O)[C@@H]2CSSC[C@H](NC1=O)C(=O)N[C@H](CO)C(=O)O[C@@H](C)C(=O)N1CCC[C@@H]1C(=O)N[C@@H]([C@H](C)N)C(=O)N[C@@H](CCCNC(=N)N)C(=O)N[C@@H](Cc1ccc(O)cc1)C(=O)N2 [Example 7] (cyclo(YHAC[dS][Lac][dP][Abu(3S-NH2)]RYCYQK[dP]P); disulfide 4-11) ?
0.2%

###

Assay: Plasma stability, human plasma
Type: in vitro ADME
Conditions: 37° C., sampled up to 240 min, read-out: Plasmastability human pl. T1/2
Bridge positions count the residues as written; N and C are the ends. Square brackets hold non-standard residues; d marks the D form. Peptide text beside a SMILES is read from it. Abu(3S-NH2) = C[C@H](N)[C@H](N)C(=O)O; Lac = C[C@H](O)C(=O)O
ENDPOINT_LABEL: half-life at 10 μM (h)
Numbers only; they are read as h.

May I ask what half-life at 10 μM has been recorded for C[C@@H]1NC(=O)[C@H](CCCNC(=N)N)NC(=O)[C@@H]2CSSC[C@H](NC(=O)[C@H](Cc3ccc(O)cc3)NC(=O)[C@H](CCCNC(=N)N)NC(=O)[C@H]([C@H](C)N)NC(=O)[C@H]3CCCN3C1=O)C(=O)N[C@@H](Cc1ccc(O)cc1)C(=O)N[C@@H](CCC(N)=O)C(=O)N[C@@H](CCCCN)C(=O)N1CCC[C@@H]1C(=O)N1CCC[C@H]1C(=O)N[C@@H](Cc1ccc(O)cc1)C(=O)N[C@@H](Cc1c[nH]cn1)C(=O)O[C@@H](C)C(=O)N2 [Example 9] (cyclo(YH[Lac]CRA[dP][Abu(3S-NH2)]RYCYQK[dP]P); disulfide 4-11) ?
1.42

###

Experiment: Plasma stability, human plasma
Type: in vitro ADME
Conditions: 37° C., sampled up to 240 min, read-out: Plasmastability human pl. T1/2
Experimental: The stability of the depsipeptides in human and mouse plasma was determined by applying the following method: 315 μL/deep well of freshly thawed human plasma (Basler Blutspende-dienst) and mouse plasma (Harlan Sera-Lab, UK), respectively, were spiked with 35 μL/well of compound in PBS (100 μM, triplicate) and incubated at 37° C. […] The peak areas were determined and triplicate values are averaged. […] By using the TREND function of EXCEL (Microsoft Office 2003) T1/2 were determined.
Numbered stars: 1 amine (or outer) side, 2 acyl side, 3 side chain; on linkers, the order of the positions; unused ones are H or OH. Bridge positions count the residues as written; N and C are the ends. Square brackets hold non-standard residues; d marks the D form. Peptide text beside a SMILES is read from it. Abu(3S-NH2) = C[C@H](N)[C@H](N)C(=O)O; X1 = NCC[C@H](O[*:1])C(=O)[*:2]; Lac = C[C@H](O)C(=O)O
ENDPOINT_LABEL: half-life at 10 μM (h)
Numbers only; they are read as h.

May I ask what half-life at 10 μM has been recorded for C[C@@H]1NC(=O)[C@H](CCN)OC(=O)[C@H](Cc2ccc(O)cc2)NC(=O)[C@@H]2CCCN2C(=O)[C@H]2CCCN2C(=O)[C@H](CCCCN)NC(=O)[C@H](CCC(N)=O)NC(=O)[C@H](Cc2ccc(O)cc2)NC(=O)[C@@H]2CSSC[C@H](NC1=O)C(=O)N[C@@H](CO)C(=O)N[C@@H](C)C(=O)N1CCC[C@@H]1C(=O)N[C@@H]([C@H](C)N)C(=O)N[C@@H](CCCNC(=N)N)C(=O)N[C@@H](Cc1ccc(O)cc1)C(=O)N2 [Example 6] (cyclo(Y[X1]ACSA[dP][Abu(3S-NH2)]RYCYQK[dP]P); disulfide 4-11) ?
0.07

May I ask what half-life at 10 μM has been recorded for C[C@@H]1NC(=O)[C@H](Cc2c[nH]cn2)NC(=O)[C@H](Cc2ccc(O)cc2)NC(=O)[C@@H]2CCCN2C(=O)[C@H]2CCCN2C(=O)[C@H](CCCCN)NC(=O)[C@H](CCC(N)=O)NC(=O)[C@H](Cc2ccc(O)cc2)NC(=O)[C@@H]2CSSC[C@H](NC1=O)C(=O)N[C@@H](CO)C(=O)O[C@@H](C)C(=O)N1CCC[C@@H]1C(=O)N[C@@H]([C@H](C)N)C(=O)N[C@@H](CCCNC(=N)N)C(=O)N[C@@H](Cc1ccc(O)cc1)C(=O)N2 [Example 1] (cyclo(YHACS[Lac][dP][Abu(3S-NH2)]RYCYQK[dP]P); disulfide 4-11) ?
1.32

May I ask what half-life at 10 μM has been recorded for C[C@@H]1NC(=O)[C@H](Cc2c[nH]cn2)NC(=O)[C@H](Cc2ccc(O)cc2)NC(=O)[C@@H]2CCCN2C(=O)[C@H]2CCCN2C(=O)[C@H](CCCCN)NC(=O)[C@H](CCC(N)=O)NC(=O)[C@H](Cc2ccc(O)cc2)NC(=O)[C@@H]2CSSC[C@H](NC1=O)C(=O)N[C@H](CO)C(=O)O[C@@H](C)C(=O)N1CCC[C@@H]1C(=O)N[C@@H]([C@H](C)N)C(=O)N[C@@H](CCCNC(=N)N)C(=O)N[C@@H](Cc1ccc(O)cc1)C(=O)N2 [Example 7] (cyclo(YHAC[dS][Lac][dP][Abu(3S-NH2)]RYCYQK[dP]P); disulfide 4-11) ?
1.03

// data source = patent US8883720B2
